The measured values listed here are drawn from the supplement of paper PMC10065799.

Tested on: Fer (mouse);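 further: 11-residue human phosphosite peptides and single-mutation variants displayed on the E. coli surface, counted by deep sequencing, each peptide's frequency after selection divided by its frequency in the unselected input library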;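 further: frequency after pTyr selection over input frequency; kinase dosed for 20-30% of maximal phosphorylation in three min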
Assay: phosphorylation enrichment, bacterial display (enrichment ratio); higher = better substrate or ligand; peptides without Tyr show the background
Short version: phosphorylation enrichment at least 0.5 is TRUE, less is FALSE.

Illustrative cases are given below, each with its answer.
KGIQLYDTPYE [SHB_Y297] = TRUE
KKYPDYIQSAM [SGMS2_Y59_I62S] = FALSE
DQVEQYKKELE [LMNA_Y259] = TRUE
NQNIGYELGHR [KCNN3_Y268_K269E] = FALSE

Does the sequence CPFNLYAEQFS [HGD_Y40_L44F_YF] have recorded phosphorylation enrichment that is 0.5 or more?
TRUE

Given the entry ADMETYLLEKS [MYH7_Y266_I263M] , answer whether its phosphorylation enrichment meets or surpasses 0.5.
FALSE
